- assay.details: gradient 5% acetonitrile 3 min, to 50% in 2 min, to 85% in 15 min, held 3 min, 100 µL/min
- particulars: column: Zorbax Extend-C18 2.1 x 50 mm; eluents: water / acetonitrile, 0.1% formic acid
Sorting guide: entries reporting RP-LC retention time beneath 800 s go in the Condition met pile, the rest go in the Condition not met pile.

A selection of reference data follows.
compound	label.value
COC[C@@H]1CN(S(=O)(=O)Cc2ccccc2)C[C@H]1c1ccncc1	Condition met
CSc1ccc(CNC(=O)C2CCCN(c3nc4c(s3)c(C)nn4-c3ccc(C)cc3)C2)cc1 (centres undefined)	Condition not met
COC(=O)CC(=O)Nc1nnc(SCc2nnc(-c3ccccc3C)o2)s1	Condition met

Prompt line: Input CCOc1ccccc1CNC(=O)C1CCN(S(=O)(=O)c2ccc3c(c2)NC(=O)CO3)CC1 ; condition: RP-LC retention time strictly below 800 s. Does it hold?
Response line: Condition met

Prompt line: Thanks! And Cc1ccccc1NC(=O)N1CCC2(CC1)NC(=O)c1ccc(F)cc1N2C ?
Response line: Condition met

Prompt line: Another compound to check: COC(=O)C(Cc1ccccc1)NC(=O)C(NC(=O)OCc1ccccc1)C(C)C (centres undefined)
Response line: Condition not met

Prompt line: // next record CCc1nc(-c2csc(S(=O)(=O)N3CCCC(C(=O)N4CCc5ccccc5C4)C3)c2)no1 (centres undefined)
Response line: Condition not met

Prompt line: Here is the next compound: CC(Cc1ccco1)NC(=O)c1cc2n(n1)CCCN(Cc1ccccc1)C2=O (centres undefined)
Response line: Condition not met
